Ki values by entry
# STUDY TARGET: UniProt Q16790
# EXPERIMENT NOTES: CA catalysed CO2 hydration, stopped-flow inhibition
# CONDITION PARAMETERS: recombinant hCA IX, stopped-flow CO2 hydration, 15 min preincubation
# Method: The uncatalyzed rates were determined in the same manner and subtracted from the total observed rates. Stock solutions of inhibitor (0.1 mM) were prepared in distilled − deionized water and dilutions up to 0.01 nM were done thereafter with the assay buffer. Inhibitor and enzyme solutions were preincubated together for 15 min at room temperature before assay to allow for the formation of the E − I complex. […]

COMPOUND: C#CC[Se]C(=O)c1cccs1
Ki: > 100 µM
//
COMPOUND: C=CC[Se]C(=O)c1ccccc1Cl
Ki: > 100 µM
//
COMPOUND: C=CC[Se]C(=O)c1ccccc1OC(C)=O [Compound 14a]
Ki: > 100 µM

Reference source: paper PMC10035951
